What protein stability index was measured for each of the following?
B1: COX4I1 (parent)
chain: VAHVKHLSASQKALKEKEKASWSS

- Variants of: B1
- assay explanation: protein stability index of a GFP-peptide fusion (GPS, HEK-293T) (PSI 1-6); higher = more stable;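 further: lentivirally expressed fusions sorted by FACS into six bins by GFP to DsRed ratio, PSI derived from sequencing read proportions per bin multiplied by bin number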
- condition summary: c terminus: a fixed tail appended

Input: Please report the measured protein stability index for VAHVKHLSASCKALKEKEKASWSS [Q11C]
Output: 3.21

Input: Please report the measured protein stability index for VAHVKHLSASQYALKEKEKASWSS [K12Y]
Output: 2.98

Input: Please report the measured protein stability index for VAHVKHLSASQKALKEKEKASWDS [S23D]
Output: 4.4

Input: Please report the measured protein stability index for VAHVKHLSASQKALKEKEHASWSS [K19H]
Output: 2.89

Input: Please report the measured protein stability index for VAHVKHLSASQKYLKEKEKASWSS [A13Y]
Output: 3.06

Input: Please report the measured protein stability index for VAHVKHLSLSQKALKEKEKASWSS [A9L]
Output: 3.23

Input: Please report the measured protein stability index for VAHLKHLSASQKALKEKEKASWSS [V4L]
Output: 2.88

Input: Please report the measured protein stability index for VAHVKHLSASQKALKEKEKASWSN [S24N]
Output: 3.76

Input: Please report the measured protein stability index for VAHVKHLSASQKALKEKCKASWSS [E18C]
Output: 3.38

Input: Please report the measured protein stability index for VAHVKHLSASQKALKEKEKESWSS [A20E]
Output: 1.71

Input: Please report the measured protein stability index for VAHVKHLSASQKALKEKEKASWSD [S24D]
Output: 2.98

Input: Please report the measured protein stability index for VAHVKHLSASRKALKEKEKASWSS [Q11R]
Output: 2.83

Input: Please report the measured protein stability index for VAHFKHLSASQKALKEKEKASWSS [V4F]
Output: 2.83

Input: Please report the measured protein stability index for VAHVKHLPASQKALKEKEKASWSS [S8P]
Output: 3.62

Input: Please report the measured protein stability index for VAHVKHLAASQKALKEKEKASWSS [S8A]
Output: 3.57

Input: Please report the measured protein stability index for VAHVKHLSASQKALHEKEKASWSS [K15H]
Output: 3.85

Input: Please report the measured protein stability index for VEHVKHLSASQKALKEKEKASWSS [A2E]
Output: 3.77

Input: Please report the measured protein stability index for VAHVKHLSASQKALKEKEKASESS [W22E]
Output: 5.33

Input: Please report the measured protein stability index for VAHVKHPSASQKALKEKEKASWSS [L7P]
Output: 3.91

Input: Please report the measured protein stability index for VAHVKHLSASQKALKKKEKASWSS [E16K]
Output: 3.17

Input: Please report the measured protein stability index for VAHVKHLSASQKALKEKEKASLSS [W22L]
Output: 4.74

Input: Please report the measured protein stability index for VAHVKHLSADQKALKEKEKASWSS [S10D]
Output: 4.01

Source of measurements: the supplement of paper PMC10567573
